# reported RP-LC retention time; entries follow
- ASSAY: gradient 5% acetonitrile 3 min, to 50% in 2 min, to 85% in 15 min, held 3 min, 100 µL/min
- STATED CONDITIONS: column: Zorbax Extend-C18 2.1 x 50 mm; eluents: water / acetonitrile, 0.1% formic acid
MEASUREMENT NAME: RP-LC retention time (s)

>>> measured_result("CC(=O)N1c2ccc(S(=O)(=O)N3CCCCCC3)cc2CC1C(=O)NC1CCCCCC1 (stereo not given)")
959
>>> measured_result("O=C(NCc1ccc(N2CCCCC2)cc1)C1CCN(c2nnc3ccccn23)CC1")
545
>>> measured_result("COc1ccc(-c2nc(-c3ccc(NS(C)(=O)=O)cc3)no2)c(OC)c1")
885
>>> measured_result("Cc1ccc(C)c(S(=O)(=O)N2CCC(c3nc(C(=O)N4CCOCC4)c(C)o3)CC2)c1")
891
>>> measured_result("CCc1c(C(=O)O)nnn1-c1ccc(Cl)cc1")
748
>>> measured_result("Cc1ccc(F)cc1NS(=O)(=O)c1cn(CC(C)C)c2ncccc12")
993
>>> measured_result("CN(C)C1(CC2CC2)CCN(C(=O)C2CC2)CC1")
558
>>> measured_result("OC[C@@H]1CNC[C@H]1C1CCN(Cc2ccc(Cl)c(F)c2)CC1")
542
>>> measured_result("CC(C)NC(=O)C1CCCN(c2nc3ncn(CC(=O)Nc4ccc5c(c4)OCO5)c(=O)c3s2)C1 (stereo not given)")
678
>>> measured_result("O=C(NCc1ccccc1Cl)C1CCCN(c2nccnc2Sc2ccccc2)C1 (stereo not given)")
1070
>>> measured_result("COc1c(NC=O)c2c(c([N+](=O)[O-])c1OC)C(=O)OC2")
760
>>> measured_result("Cc1ccc(C(=O)N2CCCCC2c2nc(-c3ccncc3)no2)s1 (stereo not given)")
904
>>> measured_result("Cc1cc(Cl)ccc1NC(=O)N(C)CC1CCOC1 (stereo not given)")
756
>>> measured_result("CCOc1ccc(N2CC(c3nc(-c4ccc(OC)c(OC)c4)no3)CC2=O)cc1 (stereo not given)")
882
>>> measured_result("CCCc1ccc(S(=O)(=O)N2CCc3nc[nH]c3C2)cc1")
656
>>> measured_result("CCCCOc1ccc(-c2cc3c(N4CCN(CC)CC4)nccn3n2)cc1")
775
>>> measured_result("O=C(C1CCCO1)N1N=C(c2ccc(Br)cc2)CC1c1ccco1 (stereo not given)")
892
>>> measured_result("CC(=O)N(C1CC1)C1CCOC2(CCN(C(=O)Cc3c(C)noc3C)CC2)C1 (stereo not given)")
659
>>> measured_result("CCc1onc(C)c1C1CCCN1C(=O)Nc1cccc(F)c1 (stereo not given)")
832
>>> measured_result("COc1ccc(N2CC(c3nc(-c4oc5ccc(OC)cc5c4C)no3)CC2=O)cc1 (stereo not given)")
1020

====

- ASSAY: gradient 5% acetonitrile 3 min, to 50% in 2 min, to 85% in 15 min, held 3 min, 100 µL/min
- STATED CONDITIONS: column: Zorbax Extend-C18 2.1 x 50 mm; eluents: water / acetonitrile, 0.1% formic acid
Please respond with MET when measured RP-LC retention time is strictly beneath 800 s, and with NOT MET in all other cases.

>>> assigned_class("O=C(Cn1cnc2c(sc3nc(-c4ccccc4)ccc32)c1=O)NCc1cccs1")
"NOT MET"
>>> assigned_class("CCn1c(SC)nnc1-c1nn(C)c2c1CN(C(=O)c1c(F)cccc1F)CC2")
"MET"
>>> assigned_class("COc1ccc2c(C)c(CC(=O)N3CCC(C(N)=O)CC3)c(=O)oc2c1C")
"MET"
>>> assigned_class("CN1C(=O)c2ccccc2C(C(=O)Nc2ccc(F)cc2F)C1c1cccs1 (centres undefined)")
"NOT MET"
>>> assigned_class("COCCN1C(=O)[C@H]2CN(Cc3ccc(OC)cc3OC)C[C@H]2C1=O")
"MET"
>>> assigned_class("O=C(C1CCC1)N1CCC(Oc2cc(N3CCOCC3)ncn2)C1 (centres undefined)")
"MET"

====

- ASSAY: gradient 5% acetonitrile 3 min, to 50% in 2 min, to 85% in 15 min, held 3 min, 100 µL/min
- STATED CONDITIONS: column: Zorbax Extend-C18 2.1 x 50 mm; eluents: water / acetonitrile, 0.1% formic acid
MEASUREMENT NAME: RP-LC retention time (s)

>>> measured_result("Cc1cc2[nH]c(C(=O)Nc3cc(F)cc(F)c3)c(CN(C)C)c2s1")
715
>>> measured_result("Cc1cccc(-c2noc(C3CCCN3C(=O)Nc3ccccc3F)n2)c1 (stereo not given)")
1020
>>> measured_result("O=C(C1CCN(c2cnc(N3CCSCC3)nc2)CC1)N1CCC2(CC1)OCCO2")
692
>>> measured_result("COC(=O)c1cc(C2CC2)nc2c1c(=O)n(Cc1cccc(F)c1)c(=O)n2C")
1130
>>> measured_result("Cc1cc2nn(CC(=O)N(C)c3ccccc3)c(=O)n2c(Nc2ccccc2C)n1")
922
>>> measured_result("C=CCc1cc(OC)c(O)c(C(=O)NCCO)c1")
735
>>> measured_result("CCC(=O)N1CCc2cc(C(=O)NCc3cccs3)ccc21")
743
>>> measured_result("CN(C)C[C@@H]1CN(Cc2ccccc2)C[C@H]1NS(=O)(=O)c1ccc(C#N)cc1")
562
>>> measured_result("Cc1ccc(NC(=O)C2CCN(S(=O)(=O)c3ccc4c(c3)sc(=O)n4C(C)C)CC2)nc1")
794
>>> measured_result("O=C(c1ccc(Cn2cncn2)cc1)N1CCN(c2ccccc2F)CC1")
712

====

- ASSAY: gradient 5% acetonitrile 3 min, to 50% in 2 min, to 85% in 15 min, held 3 min, 100 µL/min
- STATED CONDITIONS: column: Zorbax Extend-C18 2.1 x 50 mm; eluents: water / acetonitrile, 0.1% formic acid
# reported RP-LC retention time; entries follow
MEASUREMENT NAME: RP-LC retention time (s)

>>> measured_result("O=C(NC1CCCC1)C1CC(=O)N(CCc2c[nH]c3ccc(Cl)cc23)C1 (stereo not given)")
769
>>> measured_result("CCOc1ccc(NC(=O)N2CCC3(CC2)NC(=O)c2cc(Cl)ccc2N3C)cc1")
858
>>> measured_result("Cc1sc(-c2cc(C(F)(F)F)[nH]n2)cc1S(=O)(=O)N1CCN(C2CCCCC2)CC1")
726
>>> measured_result("COc1ccc(CN(C)Cc2cc(=O)n3cc(Cl)ccc3n2)cc1")
624
>>> measured_result("Cn1c(=O)n(C)c2cc(S(=O)(=O)c3ccc(F)cc3)c(NC(=O)Cc3cccc(F)c3)cc21")
873

====

- ASSAY: gradient 5% acetonitrile 3 min, to 50% in 2 min, to 85% in 15 min, held 3 min, 100 µL/min
- STATED CONDITIONS: column: Zorbax Extend-C18 2.1 x 50 mm; eluents: water / acetonitrile, 0.1% formic acid
MEASUREMENT NAME: RP-LC retention time

>>> measured_result("Cc1ccc(S(=O)(=O)N2CCCC(Cn3cnc4cccnc43)C2)cc1F (stereo not given)")
"802 s"
>>> measured_result("O=C(NCCn1cccn1)c1nn(CCOc2ccccc2)c2c1CNCC2")
"600 s"
>>> measured_result("Cn1c(N2CCCC(C(=O)NCc3ccccc3)C2)cc(=O)n(C)c1=O (stereo not given)")
"662 s"
>>> measured_result("CCC(Oc1ccc(=O)n(-c2ccc(F)cc2)n1)C(=O)Nc1cc(OC)c(OC)c(OC)c1 (stereo not given)")
"592 s"
>>> measured_result("O=C(Nc1cccc2nsnc12)C1CCN(c2ccc(-c3ccc(F)cc3)nn2)CC1")
"681 s"
>>> measured_result("CN1C(=O)c2cccnc2Sc2cc(NC(=O)c3ccc(OC(F)(F)F)cc3)ccc21")
"936 s"
>>> measured_result("COCCn1cc2c3c(cccc31)CN(C(=O)c1ccc(Br)o1)CC2")
"976 s"
>>> measured_result("CCOCCCNC(=O)N1CCCCCC1c1cccc(C)c1 (stereo not given)")
"954 s"
>>> measured_result("CSc1nnc(Cn2c(=O)sc3ccccc32)n1-c1cccc(C(F)(F)F)c1")
"824 s"
>>> measured_result("O=C(Nc1ccc2c(c1)OCO2)C1CCCN(c2nnc3ccc(Cl)cn23)C1 (stereo not given)")
"747 s"

====

# reported RP-LC retention time; entries follow
- ASSAY: gradient 5% acetonitrile 3 min, to 50% in 2 min, to 85% in 15 min, held 3 min, 100 µL/min
- STATED CONDITIONS: column: Zorbax Extend-C18 2.1 x 50 mm; eluents: water / acetonitrile, 0.1% formic acid
MEASUREMENT NAME: RP-LC retention time

>>> measured_result("CCC1CN2C=NC(N3CCN(C(=O)c4ccccc4)CC3)=CC2=N1 (stereo not given)")
"611 s"
>>> measured_result("O=C(Cc1ccc(F)cc1)Nc1ccc2cn[nH]c2c1")
"688 s"
>>> measured_result("COc1ccc(N2C(=O)CCS2(=O)=O)cc1S(=O)(=O)NCCc1c[nH]c2ccccc12")
"792 s"
>>> measured_result("Cc1c(Br)cc(C(=O)NC(C)C)c(C)c1C")
"838 s"
>>> measured_result("COC(=O)C(NC(=O)Nc1cccn2c(C)nnc12)c1ccccc1 (stereo not given)")
"678 s"
>>> measured_result("Cc1ccc(Nc2c(-c3c(F)cccc3Cl)nc3ccc(Br)cn23)cc1")
"985 s"
>>> measured_result("CCOc1ccc(NC(=O)Cn2c(=O)cc(-c3nc(C)no3)c3ccccc32)cc1")
"862 s"
>>> measured_result("COc1ccc2[nH]cc(CCNC(=O)C(C)C3CCN(S(=O)(=O)c4cccs4)CC3)c2c1 (stereo not given)")
"827 s"
>>> measured_result("CCS(=O)(=O)N1CC(=O)N(c2ccc(C)cc2)C(C)(C(=O)NC2CCCCCCC2)C1 (stereo not given)")
"979 s"
>>> measured_result("CN(C)[C@@H]1CN(C(=O)CCc2nc3ccc(Cl)cc3[nH]2)C[C@H]1CO")
"529 s"
>>> measured_result("COc1ccccc1NC(=O)Cn1nc2c(Oc3cc(C)cc(C)c3)nccn2c1=O")
"957 s"
>>> measured_result("CCCCN1CN(c2ccc(C)cc2)c2ncccc2S1(=O)=O")
"1110 s"
>>> measured_result("CCOC(=O)c1noc2ncnc(Nc3ccc(CN4CCCCC4)cc3)c12")
"593 s"
>>> measured_result("CC(C)(NC(=O)c1ccoc1)c1nc2c(c(C(N)=O)n1)OCO2")
"818 s"
>>> measured_result("Cc1ccc(Sc2ccc(N3CCCC(C(=O)N4CCN(c5ccccn5)CC4)C3)nn2)cc1 (stereo not given)")
"659 s"
>>> measured_result("CCc1ccccc1NS(=O)(=O)c1ccc2c(c1)CCCC(=O)N2")
"756 s"
>>> measured_result("O=C(NCc1csc(-c2cccs2)n1)C1CCN(S(=O)(=O)c2ccc(Cl)cc2)CC1")
"927 s"
>>> measured_result("CCOC(=O)c1c(NCCc2cccs2)c2cccc(Cl)c2[nH]c1=O")
"844 s"
>>> measured_result("O=C(C1CC(=O)N(c2n[nH]c3cccc(F)c23)C1)N1CCN(c2ccc(F)cc2)CC1 (stereo not given)")
"740 s"
>>> measured_result("CCOC(=O)CNC(=O)N1CCN(CCn2c(C(F)(F)F)nc3cccnc32)CC1")
"588 s"
>>> measured_result("Cc1cc(-c2nnc(-c3ccco3)o2)c(C)n1CC(=O)Nc1ccc(F)c(F)c1")
"909 s"
>>> measured_result("Cc1oc(C2CCN(S(=O)(=O)c3ccccc3F)CC2)nc1C(=O)N1CCOCC1")
"776 s"
>>> measured_result("Cc1ccc(NC(=O)C2CCN(S(=O)(=O)c3ccc4[nH]c5c(c4c3)CCCCC5)CC2)nc1")
"897 s"
>>> measured_result("CCCS(=O)(=O)N1CCC(c2nnc(C3CC3)s2)CC1")
"684 s"
>>> measured_result("Cc1ccc(CNC(=O)c2cccn2Cc2noc(C)n2)cc1")
"828 s"
>>> measured_result("Cc1noc2ncnc(N3CCCC(C(=O)Nc4ccc(N5CCC(C)CC5)cc4)C3)c12 (stereo not given)")
"698 s"
>>> measured_result("CCOC(=O)COC(=O)c1cn(-c2cccc(C)c2)c(=O)c2ccccc12")
"718 s"
>>> measured_result("Cc1cc(=O)n(CC(=O)Nc2ccccc2Cl)c(N2CCOCC2)n1")
"863 s"
>>> measured_result("Cn1nc(C2CCCN(C(=O)c3ccoc3)C2)n(C2CCCC2)c1=O (stereo not given)")
"672 s"
>>> measured_result("COc1ccc(-c2nnc(-c3ccc(OC)c(S(=O)(=O)N4CCC(C)CC4)c3)o2)cc1OC")
"990 s"
>>> measured_result("CC(NC(=O)c1ccccn1)C(=O)Nc1nc2ccccc2[nH]1 (stereo not given)")
"608 s"
>>> measured_result("COCC(=O)N(CC(=O)N1CCc2sccc2C1COc1ccc(Cl)cc1)CC1CCCO1 (stereo not given)")
"871 s"
>>> measured_result("COc1ccc(Cl)cc1NC(=O)c1n[nH]c2ccccc12")
"1010 s"
>>> measured_result("O=C(COc1ccccc1F)NCC1CCN(S(=O)(=O)C2CC2)CC1")
"712 s"
>>> measured_result("Cc1ccc(NC(=O)C2CCCN(c3ccc(=O)n(-c4cccc(Cl)c4)n3)C2)cc1C (stereo not given)")
"960 s"
>>> measured_result("CC(=O)N1CCN(c2ccc(NC(=O)c3ccccc3Br)cc2)CC1")
"646 s"
>>> measured_result("CCN(CC)C(=O)c1ccc2c(c1)N(C(=O)NC)CC2")
"648 s"
>>> measured_result("CCc1nnc2ccc(-c3noc(-c4ccc(C)c(C)c4)n3)cn12")
"1140 s"
>>> measured_result("Cn1nc(-c2nc(C3CC3)no2)c2c1CCN(C(=O)c1ccncc1)C2")
"628 s"
>>> measured_result("Cc1nc2cc(-c3noc(CCc4c[nH]c5ccccc45)n3)ccc2o1")
"1020 s"
